Listed here: items and their measured composite z-score.
ASSAY_SUMMARY: small-molecule microarray binders of probe aCHRDL2, primary screen, biochemical, biotinylated probe, 635/667 nm fluorescence (AID 1100)
TEST_PARAMETERS: higher = more signal
// return just the number, without any unit appended

Below, 3 molecules whose answers are already recorded.
O=C(O)[C@H]1C[C@H]2C(=O)N[C@@H](Cc3ccccc3)C(=O)N2[C@H]1c1ccc(O)cc1
0.913
CC(C)C[C@@H]1NC(=O)[C@@]23C(=O)N[C@@H](Cc4ccccc4)C2[C@H](C)[C@@]2(C)O[C@H]2C3/C=C/C/C=C\CNC(=O)[C@H](Cc2ccccc2)NC1=O (stereo not given in full)
-0.417
CC1CC/C=C\[C@H]2OC34C=CCN(C(C)C)C(=O)[C@H]3N(C(CO)C(C)C)C(=O)[C@@H]4C2C(=O)O1 (stereo not given in full)
0.228

Task: Dear colleague, I am looking for the recorded composite z-score of the following molecule: `CCCC[C@@H](O)C1=C(C)C[C@H]2C(=O)N(C)C(=O)[C@H]2[C@H]1CO`
Output: -0.493

Task: Name the reported composite z-score value associated with the molecule `CCCCC(=C=CC[C@H](O)c1cccc(OCCO)c1)CCO`
Output: 0.287

Task: Sample `C=C(C(=O)CC[C@H](OC(C)=O)c1ccc(CO)o1)C(C)C` — what was its composite z-score?
Output: -0.476
